From: the supplement of paper PMC8975748

Test system: Saccharomyces cerevisiae BY4741 SeMeCo community
Assay: z-score of subpopulation abundance vs DMSO median, subpopulation auxotrophic for L; higher = larger share of this subpopulation than in DMSO controls
Conditions: 10 µM; 24 h; SM minimal medium; subpopulation (auxotrophy): L
Structures can show the parent of a compound that is named as a salt.
TEST_READOUT: z-score of subpopulation abundance
// print number alone

Fill blank: measured z-score of subpopulation abundance of the molecule O=C(Nc1cc(Cl)cc(Cl)c1O)c1c(O)c(Cl)cc(Cl)c1Cl [Oxyclozanide] is ____.
-0.21

Then this molecule: CCOC(=O)C1=C(C)NC(C)=C(C(=O)OC)C1c1cccc([N+](=O)[O-])c1 (stereo not drawn)
-1.96

Then what about the molecule OC(CCN1CCCCC1)(c1ccccc1)C1CCCCC1 (stereo not drawn) [Trihexyphenidyl hydrochloride] ?
0.5

Consider next the molecule CCC1=C(C)CN(C(=O)NCCc2ccc(S(=O)(=O)NC(=O)N[C@H]3CC[C@H](C)CC3)cc2)C1=O [Glimepiride] in the same way.
0.24

Next entry: `O=C(CCCN1CCC(O)(c2ccc(Cl)cc2)CC1)c1ccc(F)cc1`
0.68

Same read-out for C[C@@H](O)[C@H]1C(=O)N2C(C(=O)O)=C(S[C@@H]3CN[C@H](C(=O)N(C)C)C3)[C@H](C)[C@H]12 [Meropenem] ?
0.05

Please do the same for Cn1c(=O)c2c(ncn2CC(O)CO)n(C)c1=O (stereo not drawn) as well.
-0.69

Same thing, different molecule: `NC12CC3CC(CC(C3)C1)C2`
0.99
